# assayed.system: Transient receptor potential cation channel subfamily V member 1 (Rattus norvegicus) (UniProt O35433)
# Sequence (O35433 whole entry): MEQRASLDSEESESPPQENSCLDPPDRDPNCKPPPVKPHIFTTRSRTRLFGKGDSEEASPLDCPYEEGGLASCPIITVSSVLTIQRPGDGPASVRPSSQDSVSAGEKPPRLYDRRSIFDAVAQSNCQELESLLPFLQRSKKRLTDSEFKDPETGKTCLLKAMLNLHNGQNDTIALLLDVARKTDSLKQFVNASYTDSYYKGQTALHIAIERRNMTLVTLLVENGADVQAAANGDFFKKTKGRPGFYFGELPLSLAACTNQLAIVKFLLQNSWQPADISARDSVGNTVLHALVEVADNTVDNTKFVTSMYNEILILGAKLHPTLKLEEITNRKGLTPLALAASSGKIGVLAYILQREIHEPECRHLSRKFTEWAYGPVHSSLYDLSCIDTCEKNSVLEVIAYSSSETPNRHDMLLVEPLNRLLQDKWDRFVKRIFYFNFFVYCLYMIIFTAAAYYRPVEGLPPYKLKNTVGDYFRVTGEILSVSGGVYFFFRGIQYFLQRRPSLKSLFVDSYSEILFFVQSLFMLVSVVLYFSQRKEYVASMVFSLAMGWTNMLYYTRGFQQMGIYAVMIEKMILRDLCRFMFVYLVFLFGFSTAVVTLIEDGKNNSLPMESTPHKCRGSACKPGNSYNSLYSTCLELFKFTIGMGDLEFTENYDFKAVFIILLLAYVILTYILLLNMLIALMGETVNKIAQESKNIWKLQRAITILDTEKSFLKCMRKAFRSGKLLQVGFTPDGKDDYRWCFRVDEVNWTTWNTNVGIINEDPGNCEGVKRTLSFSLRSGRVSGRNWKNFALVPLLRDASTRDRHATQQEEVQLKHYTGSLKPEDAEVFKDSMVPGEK
# assay.notes: Agonist activity at rat TRPV1 expressed in CHO cells assessed as increase of capsaicin-induced calcium uptake relative to capsaicin
# Format: functional, cell-based
So I've got a bunch of compounds here, and I need their Activity values.
One number for each entry, in %.

Check out these entries, answers already filled in.
# compound, Activity, %
measured = [
    ("COc1cc(CC(=O)NCC(COC(=O)C(C)(C)C)Cc2ccc(C(C)(C)C)cc2)c(Cl)cc1OC(C)=O (stereo unspecified)", 53),
    ("COc1cc(CC(=O)NCc2ccc(C(C)(C)C)cc2)c(I)cc1O", 17),
    ("COc1cc(CC(=O)NCc2ccc(C(C)(C)C)cc2)c(I)cc1OC(C)=O", 8),
    ("COc1cc(CC(=O)NCC(COC(=O)C(C)(C)C)Cc2ccc(C(C)(C)C)cc2)c(Br)cc1O (stereo unspecified)", 21),
    ("COc1cc(CC(=O)NCC(COC(=O)C(C)(C)C)Cc2ccc(C)c(C)c2)cc(I)c1O (stereo unspecified)", 6),
    ("COc1cc(CC(=O)NCc2ccc(C(C)(C)C)cc2)c(Cl)cc1OC(C)=O", 83),
    ("CC(C)(C)C(=O)OCC(CNC(=O)Cc1ccc(O)c(Br)c1)Cc1ccc(C(C)(C)C)cc1 (stereo unspecified)", 72),
    ("COc1cc(CC(=O)NCc2ccc(C(C)(C)C)cc2)c(Br)cc1OC(C)=O", 60),
    ("COc1cc(CC(=O)NCc2ccc(C(C)(C)C)cc2)c(Br)cc1O", 37),
    ("COc1cc(CC(=O)NCC(COC(=O)C(C)(C)C)Cc2ccc(C(C)(C)C)cc2)c(Cl)cc1O (stereo unspecified)", 61),
]

Would you kindly look at the next entry?
Kindly note the recorded Activity for "COc1cc(CC(=O)NCc2ccc(C(C)(C)C)cc2)cc(Br)c1O" , which is 11
